- System: P. falciparum stage V gametocytes
- Set-up: BacTiter-Glo ATP luminescence viability of purified stage V gametocytes in 384-well plates, per cent inhibition versus DMSO
- MEASUREMENT_CONTEXT: 48 h, 5 µM; inhibitor
About 3,200 (25%) of roughly 13,000 compounds showed an effect of 50% or more. The list shows a part of the results.
Kindly return met if reported % Inhibition is no lower than 40%; return not met if it is lower.

{"COMPOUND": "O=C(Nc1cccc(-c2cc3ccccc3[nH]2)c1)C1CCN(Cc2ccccc2O)CC1", "CLASS_NAME": "not met"}
{"COMPOUND": "O=C(Nc1ccccc1F)NC1CCN(c2ccnc(Nc3ccc(F)cc3)n2)CC1", "CLASS_NAME": "not met"}
{"COMPOUND": "O=c1cc(NCCCNC(c2ccccc2)c2ccc(Cl)c(Cl)c2)[nH]c2ccccc12 (centres unmarked)", "CLASS_NAME": "met"}
{"COMPOUND": "Cc1ccc(F)cc1S(=O)(=O)NCC(C)c1ccc(NC(=O)Nc2cccc(F)c2)cc1 (centres unmarked)", "CLASS_NAME": "not met"}
{"COMPOUND": "Cc1cc(CN2CCC(Nc3ncc(-c4ccsc4)c4nc(C(F)(F)F)ccc34)CC2)no1", "CLASS_NAME": "met"}
{"COMPOUND": "Cc1nc(-c2nc(N3CCC(O)CC3)ncc2-c2ccsc2)sc1C", "CLASS_NAME": "not met"}
{"COMPOUND": "CC(C)c1ccc(N(CC(=O)N/N=C/c2ccc(C(F)(F)F)cc2)S(=O)(=O)c2ccc(C(F)(F)F)cc2)cc1", "CLASS_NAME": "not met"}
{"COMPOUND": "O=c1cc(NCCCNC2CCCc3c2cc(Cl)c(Cl)c3Cl)[nH]c2ccccc12 (centres unmarked)", "CLASS_NAME": "not met"}

* * *

- Test system: P. falciparum stage V gametocytes
- Parameters: BacTiter-Glo ATP luminescence viability of purified stage V gametocytes in 384-well plates, per cent inhibition versus DMSO
- MEASUREMENT_CONTEXT: 48 h, 5 µM; inhibitor
About 3,200 (25%) of roughly 13,000 compounds showed an effect of 50% or more. The list shows a part of the results.

{"CHEM_SMILES": "CC(C)(C)[C@@H](Nc1ccc(C#N)c2ccccc12)C(=O)NC1(Cc2ccc(O)cc2)CCCC1", "% Inhibition": "18.1%"}
{"CHEM_SMILES": "CCCCC1(NC(=O)[C@H](CC(C)C)Nc2ccc(C#N)c3ccccc23)CCCCC1", "% Inhibition": "-52.31%"}
{"CHEM_SMILES": "CC(C)(C)[C@@H](Nc1ccc(C#N)c2ccccc12)C(=O)NC1(Cc2ccc(O)c(Br)c2)CCCC1", "% Inhibition": "27.12%"}
{"CHEM_SMILES": "N#Cc1ccc(N[C@@H](CC2CCCCC2)C(=O)NCc2cc(Cl)cc(Cl)c2)c2ccccc12", "% Inhibition": "13.09%"}

* * *

Measured % Inhibition by item
- Test system: P. falciparum stage V gametocytes
- Parameters: BacTiter-Glo ATP luminescence viability of purified stage V gametocytes in 384-well plates, per cent inhibition versus DMSO
- MEASUREMENT_CONTEXT: 48 h, 5 µM; inhibitor
Screen size: about 13,000 compounds; about 3,200 (25%) showed an effect of 50% or more. The list shows a part of the results.

{"COMPOUND": "COc1ccc2nccc([C@@H](O)CN3CCC(NCc4[nH]c5ccccc5c4F)CC3)c2c1", "TGT": "P. falciparum stage V gametocytes", "% Inhibition / %": 4.499}
{"COMPOUND": "Cc1cc(N[C@@H](CC(C)C)C(=O)NCCOc2ccccc2)nc(NCC2CCCCC2)n1", "TGT": "P. falciparum stage V gametocytes", "% Inhibition / %": -82.39}
{"COMPOUND": "Cc1cc(N[C@@H](Cc2ccccc2)C(=O)NCCc2ccccc2)nc(NCCc2ccc(F)cc2)n1", "TGT": "P. falciparum stage V gametocytes", "% Inhibition / %": 49.67}
{"COMPOUND": "CC(Oc1cc(-n2cnc3ccc(NC(=O)CCN4CCCCC4)cc32)sc1C(N)=O)c1ccccc1Cl (stereo not shown)", "TGT": "P. falciparum stage V gametocytes", "% Inhibition / %": 69.65}
{"COMPOUND": "O=C(Nc1cccc2ccccc12)N1CCc2cc3nccc(N4CCN5CCC[C@H]5C4)c3cc21", "TGT": "P. falciparum stage V gametocytes", "% Inhibition / %": -22.56}
{"COMPOUND": "Cc1nc(C(=O)N2CCCC[C@H]2CNC(=O)c2ccc(-c3ccc(N4CCCC4=O)cc3C)cc2)c(-c2ccc(F)cc2)s1", "TGT": "P. falciparum stage V gametocytes", "% Inhibition / %": 4.719}
{"COMPOUND": "Cc1cc(N[C@@H](Cc2ccccc2)C(=O)NCCCOC(C)C)nc(NCC2CCCCC2)n1", "TGT": "P. falciparum stage V gametocytes", "% Inhibition / %": 30.55}
{"COMPOUND": "COc1ccc(NC(=O)[C@H](CC(C)C)Nc2cc(C)nc(NCc3cccc(C)c3)n2)cc1", "TGT": "P. falciparum stage V gametocytes", "% Inhibition / %": -4.805}
{"COMPOUND": "NC(=O)CN1CC=C(c2c[nH]c3ccc(Br)cc23)CC1", "TGT": "P. falciparum stage V gametocytes", "% Inhibition / %": -24.55}
{"COMPOUND": "O=C(Cc1cnc[nH]1)Nc1cccc(-c2cccc(-c3nc4ccc(F)cc4[nH]3)c2)c1", "TGT": "P. falciparum stage V gametocytes", "% Inhibition / %": 10.3}
{"COMPOUND": "N#Cc1ccc2c(c1)CCN(CCC1CCC(NC(=O)/C=C/c3c[nH]c4c(Br)cccc34)CC1)CC2 (stereo not shown)", "TGT": "P. falciparum stage V gametocytes", "% Inhibition / %": -4.951}
{"COMPOUND": "COc1cc2nc(NCCCOC(C)C)n3nc(-c4ccccc4)nc3c2cc1OC", "TGT": "P. falciparum stage V gametocytes", "% Inhibition / %": 5.714}
{"COMPOUND": "COc1ccc2c(c1)ncn2-c1cc(OCc2ccncc2Br)c(C(N)=O)s1", "TGT": "P. falciparum stage V gametocytes", "% Inhibition / %": 39.96}
{"COMPOUND": "CCN(CC)CCCNCc1ccc(-c2ccc(C(F)(F)F)cc2)cc1", "TGT": "P. falciparum stage V gametocytes", "% Inhibition / %": 65.86}
{"COMPOUND": "CS(=O)(=O)NCCCNCc1ccc(-c2cccc(-c3nc4ccc(C(F)(F)F)cc4[nH]3)c2)cc1", "TGT": "P. falciparum stage V gametocytes", "% Inhibition / %": 6.297}
{"COMPOUND": "Cc1cc(N[C@@H](Cc2ccccc2)C(=O)NCCc2ccccc2)nc(NCc2ccccc2C)n1", "TGT": "P. falciparum stage V gametocytes", "% Inhibition / %": -0.7865}
{"COMPOUND": "COc1ccccc1CCNc1nc(C)cc(N[C@@H](Cc2ccccc2)C(=O)NCCCOC(C)C)n1", "TGT": "P. falciparum stage V gametocytes", "% Inhibition / %": 55.12}
{"COMPOUND": "CCCCCCCCCCN1C(=O)C2C(CCCCNC(C)=O)NC3(C(=O)N(Cc4ccc(C(C)(C)C)cc4)c4ccccc43)C2C1=O (stereo not shown)", "TGT": "P. falciparum stage V gametocytes", "% Inhibition / %": 47.42}
{"COMPOUND": "COc1ccccc1CCNc1nc(C)cc(N[C@@H](Cc2ccccc2)C(=O)NCCOc2ccccc2)n1", "TGT": "P. falciparum stage V gametocytes", "% Inhibition / %": 100.5}
{"COMPOUND": "Cc1[nH]nc2ccc(-c3cc(OC[C@@H](N)Cc4ccccc4)cnc3-c3ccc(OCc4cccc(F)c4)cc3)cc12", "TGT": "P. falciparum stage V gametocytes", "% Inhibition / %": 97.54}
{"COMPOUND": "COc1ccccc1CCNc1nc(C)cc(N[C@@H](Cc2ccccc2)C(=O)NCCc2ccccc2)n1", "TGT": "P. falciparum stage V gametocytes", "% Inhibition / %": 83.15}
{"COMPOUND": "COc1cc2nc(-c3ccccc3)nc(N3CCN(CC(=O)N4CCCC4)CC3)c2cc1OC", "TGT": "P. falciparum stage V gametocytes", "% Inhibition / %": -15.61}
{"COMPOUND": "C[C@@H](Oc1cc(-n2cnc3ccc(NC(=O)NC(C)(C)C)cc32)sc1C(N)=O)c1ccccc1Cl", "TGT": "P. falciparum stage V gametocytes", "% Inhibition / %": 66.79}
{"COMPOUND": "COc1ccccc1CCNc1nc(C)cc(N[C@@H](Cc2ccccc2)C(=O)Nc2ccccc2)n1", "TGT": "P. falciparum stage V gametocytes", "% Inhibition / %": 36.98}
{"COMPOUND": "CC(=O)c1c(CC(=O)O)c2ccccc2n1O", "TGT": "P. falciparum stage V gametocytes", "% Inhibition / %": 58.24}
{"COMPOUND": "Cc1[nH]nc2ccc(-c3cc(OC[C@@H](N)Cc4ccccc4)cnc3-c3ccccc3OCc3cccc(F)c3)cc12", "TGT": "P. falciparum stage V gametocytes", "% Inhibition / %": -9.479}
{"COMPOUND": "CN(c1cc(NC(=O)c2cccs2)ccn1)C1CCN(Cc2cccc(F)c2)CC1", "TGT": "P. falciparum stage V gametocytes", "% Inhibition / %": 5.779}
{"COMPOUND": "O=C(CCN1CCCCC1)Nc1ccc(Nc2nccc(NCC(O)c3ccccc3)n2)cc1 (stereo not shown)", "TGT": "P. falciparum stage V gametocytes", "% Inhibition / %": -29.58}
{"COMPOUND": "CCN1CCN(c2cc(C)c3cc(NC(=O)C=Cc4cccc(OC)c4OC)ccc3n2)CC1", "TGT": "P. falciparum stage V gametocytes", "% Inhibition / %": -23.17}
{"COMPOUND": "Cc1cccc(N2CCN(C3CCC(NC(=O)c4cc5ccccc5[nH]4)CC3)CC2)c1C (stereo not shown)", "TGT": "P. falciparum stage V gametocytes", "% Inhibition / %": -4.538}
{"COMPOUND": "COCn1ncc2cc(-c3cccc(NC(=O)c4csc(NC(C)=O)n4)c3)ccc21", "TGT": "P. falciparum stage V gametocytes", "% Inhibition / %": 24.99}

Where do these numbers come from? They come from paper PMC4552634.
